Reported cAMP EC50 (1.0% HSA) values are given for each entry in this list.
Target: human glucagon receptor (human, UniProt P47871 26-477)
Test: cell-based or functional assay

Solved entries:
• YXEGTXTSDXSIXLDXIAQXKFIXXLIEGGKSSGAPPPS (Aib2, αMeF(2F)6, 4Pal10, αMeL13, Orn16, Aib20, D-Glu24, αMeY25; acylated K21, K31 (groups as in name); C-terminal amide) = > 9.95 µM
• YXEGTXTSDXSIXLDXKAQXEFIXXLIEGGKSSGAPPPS (Aib2, αMeF(2F)6, 4Pal10, αMeL13, Orn16, Aib20, D-Glu24, αMeY25; acylated K17, K31 (groups as in name); C-terminal amide) = > 9.95 µM
• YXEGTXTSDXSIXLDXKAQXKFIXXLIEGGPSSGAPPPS (Aib2, αMeF(2F)6, 4Pal10, αMeL13, Orn16, Aib20, D-Glu24, αMeY25; acylated K17, K21 (groups as in name); C-terminal amide) = > 9.95 µM

Let us move to another entry and its cAMP EC50 (1.0% HSA).
Query: Field request: cAMP EC50 (1.0% HSA) | item: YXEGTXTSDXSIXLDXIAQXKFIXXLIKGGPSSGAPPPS (Aib2, αMeF(2F)6, 4Pal10, αMeL13, Orn16, Aib20, D-Glu24, αMeY25; acylated K21, K28 (groups as in name); C-terminal amide)
Reply: > 9.95 µM
